system.name: Thymidine phosphorylase (TP) (Escherichia coli, UniProt P07650)
Construct: purchased Sigma Aldrich, USA
Sequence (P07650 whole entry): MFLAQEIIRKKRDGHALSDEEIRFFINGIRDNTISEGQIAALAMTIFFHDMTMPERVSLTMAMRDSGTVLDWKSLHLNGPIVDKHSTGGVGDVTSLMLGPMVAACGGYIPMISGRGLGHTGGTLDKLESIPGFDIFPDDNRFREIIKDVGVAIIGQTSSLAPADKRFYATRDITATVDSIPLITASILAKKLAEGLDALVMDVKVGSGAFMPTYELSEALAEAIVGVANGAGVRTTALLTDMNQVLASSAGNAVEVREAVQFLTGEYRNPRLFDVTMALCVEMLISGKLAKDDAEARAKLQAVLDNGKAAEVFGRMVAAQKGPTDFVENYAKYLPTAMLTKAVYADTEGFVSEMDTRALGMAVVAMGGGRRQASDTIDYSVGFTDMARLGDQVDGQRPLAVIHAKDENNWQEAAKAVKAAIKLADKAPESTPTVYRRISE
method.summary: Thymidine phosphorylase inhibition assay (spectrophotometric, 290 nm)
Type: biochemical, E. coli
condition.label: pH 7, E. coli TP; test compound 10 µL of 0.5 mM in 200 µL; thymidine substrate; 30 °C, pH 7.0; read-out: Thymidine Phosphorylase Inhibitory Activity % Inhibition
Classification field. Basis: inhibition at 500 µM. Definitions: lower band (below 50%), central band (50% to below 70%), upper band (70% or more)

Would you mind sorting COC(=O)C1=C(C)NC(=O)NC1c1ccc(Cl)cc1Cl (stereo not shown) into the appropriate category?
lower band

Textbook exercise: identify the category of the compound given here, COC(=O)C1=C(C)NC(=O)NC1c1ccco1 (stereo not shown) , according to its measured value.
upper band

# classify by inhibition at 500 µM band: COC(=O)C1=C(C)NC(=O)NC1c1ccc(C(C)C)cc1 (stereo not shown)
lower band

Kindly identify the class of COC(=O)C1=C(C)NC(=O)NC1c1cc(Br)c(OC)c(OC)c1 (stereo not shown) .
central band

Which inhibition at 500 µM band matches COC(=O)C1=C(C)NC(=O)NC1c1cccc(OC)c1OC (stereo not shown) ?
central band

In plain terms, what class is COC(=O)C1=C(C)NC(=O)NC1c1cc(OC)ccc1OC (stereo not shown) ?
lower band

Just checking, what class would you give COC(=O)C1=C(C)NC(=O)NC1c1ccc(OC)c(OCc2ccccc2)c1 (stereo not shown) here?
lower band

Form field 'band' for COC(=O)C1=C(C)NC(=O)NC1c1c(Cl)cccc1Cl (stereo not shown)
lower band

Class for COC(=O)C1=C(C)NC(=O)NC1c1ccc(Cl)cc1 (stereo not shown) ?
central band

Note: place this compound into its band. Item: COC(=O)C1=C(C)NC(=O)NC1c1cccs1 (stereo not shown)
lower band

Please indicate the class for COC(=O)C1=C(C)NC(=O)NC1c1ccc([N+](=O)[O-])cc1 (stereo not shown) based on its inhibition at 500 µM.
upper band

Please report the category associated with COC(=O)C1=C(C)NC(=O)NC1c1ccc(OC(C)=O)c(OC)c1 (stereo not shown) , nothing else.
upper band

Using the reported inhibition at 500 µM, which band applies to CCC1NC(=O)NC(C)=C1C(=O)OC (stereo not shown) ?
lower band

For the record COC(=O)C1=C(C)NC(=O)NC1c1ccsc1 (stereo not shown) , report the class its inhibition at 500 µM corresponds to.
upper band

Consider COC(=O)C1=C(C)NC(=O)NC1c1ccc(O)c(Cl)c1 (stereo not shown) . To which inhibition at 500 µM class does it belong?
central band

Band of COC(=O)C1=C(C)NC(=O)NC1c1ccccc1F (stereo not shown) ?
lower band

Lab log: COC(=O)C1=C(C)NC(=O)NC1c1ccccc1OC (stereo not shown) — assign inhibition at 500 µM category
lower band

Which class does COC(=O)C1=C(C)NC(=O)NC1c1ccc(C)s1 (stereo not shown) fall in?
central band

Field: class (inhibition at 500 µM) — entry: COC(=O)C1=C(C)NC(=O)NC1c1ccc(OC)cc1 (stereo not shown)
central band

Assign a bin to COC(=O)C1=C(C)NC(=O)NC1c1ccccc1Cl (stereo not shown)
lower band

Please indicate the class for COC(=O)C1=C(C)NC(=O)NC1c1cccc(OCc2ccccc2)c1 (stereo not shown) based on its inhibition at 500 µM.
lower band

In plain terms, what class is COC(=O)C1=C(C)NC(=O)NC1c1ccc(N(C)C)cc1 (stereo not shown) ?
upper band

Which of the defined bands does the recorded inhibition at 500 µM of COC(=O)C1=C(C)NC(=O)NC1c1ccc(C(F)(F)F)cc1 (stereo not shown) sit within?
upper band

Please let me know in which category the item COC(=O)C1=C(C)NC(=O)NC1c1ccc(F)c(OC)c1 (stereo not shown) belongs.
lower band

Lab note: which band did CCOc1ccc(C2NC(=O)NC(C)=C2C(=O)OC)cc1 (stereo not shown) land in?
upper band

Band of CCCCC1NC(=O)NC(C)=C1C(=O)OC (stereo not shown) ?
upper band

Field: class (inhibition at 500 µM) — entry: COC(=O)C1=C(C)NC(=O)NC1CC(C)C (stereo not shown)
upper band

Hi there! Could you help me figure out the category for COC(=O)C1=C(C)NC(=O)NC1c1ccc(O)cc1 (stereo not shown) please?
central band

For this compound, which bin applies? COC(=O)C1=C(C)NC(=O)NC1c1ccc(C)o1 (stereo not shown)
upper band
